- experimental target: Protein arginine N-methyltransferase 1 (Homo sapiens) (UniProt Q99873)
- Sequence (Q99873 whole entry, looked up): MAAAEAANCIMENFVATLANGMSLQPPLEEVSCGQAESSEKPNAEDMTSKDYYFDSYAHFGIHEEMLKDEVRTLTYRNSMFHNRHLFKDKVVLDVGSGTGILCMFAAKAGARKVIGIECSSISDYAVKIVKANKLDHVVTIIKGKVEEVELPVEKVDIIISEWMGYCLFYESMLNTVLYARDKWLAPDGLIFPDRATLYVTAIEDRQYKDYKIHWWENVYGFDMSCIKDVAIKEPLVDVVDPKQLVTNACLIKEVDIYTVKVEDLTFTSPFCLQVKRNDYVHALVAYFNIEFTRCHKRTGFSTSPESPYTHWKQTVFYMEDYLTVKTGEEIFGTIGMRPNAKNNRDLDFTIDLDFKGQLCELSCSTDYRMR
- measurement description: human PRMT1 activity-probe blockers – biochemical, fluorescence polarization, primary screen (AID 652257)
- assay context: recombinant PRMT1, activity-based probe fluorescence polarization; at 2.79 µM; hits give high values
The campaign covered roughly 370,000 compounds. About 4,800 (1.3%) were called active. The sample as a whole holds a higher share of actives than the screen did.
compounds and their reported inhibition
Give just the number in %; leave the unit off.

// known answers, use as guide
COc1ccccc1C(=O)NC1CCCCN(C(C)C)C1=O (stereo not drawn)    2.65
CC(=O)NC(CC(=O)O)c1ccc(F)cc1 (stereo not drawn)    0.13
COC(=O)C1CN(Cc2ccc(F)cc2)CCS(=O)(=O)N1Cc1ccc(Cl)cc1 (stereo not drawn)    0.79

Query string: I am curious: what inhibition value has been reported for COc1ccc(NC2=CC(=S)NC(C)(C)C2)cc1 ?
Result string: 33.8

Query string: Query: inhibition; subject: COC(=O)C1=C(C)NC(=S)NC1c1ccc(OC)cc1 (stereo not drawn)
Result string: -3.18

Query string: Given C[C@H](C(=O)N(C)c1ccccc1)[C@@H](O)c1ccc2ccccc2c1 , state its recorded inhibition.
Result string: 6.67

* * *

- experimental target: Protein arginine N-methyltransferase 1 (Homo sapiens)
- measurement description: human PRMT1 activity-probe blockers – biochemical, fluorescence polarization, primary screen (AID 652257)
- assay context: recombinant PRMT1, activity-based probe fluorescence polarization; at 2.79 µM
In all, about 370,000 compounds went through this assay and about 4,800 (1.3%) were called active.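 The calls were made as follows: active = inhibition above about 21% made by adding two undisclosed values (limit read from the data); inactive = the rest.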 What follows is part of a selection rich in actives, with near analogues and random picks from the rest.
Hi there, use one of these labels in your reply, thanks! True (active), False (inactive)

CCN(C(=O)Nc1cccc2ccccc12)c1ccccc1    False
O=C(OCC(O)C(O)COC(=O)c1ccccc1)c1ccccc1 (configuration not stated)    False
O=C(CN(c1cc(C(F)(F)F)ccc1Cl)S(=O)(=O)c1ccccc1)NCc1cccnc1    False

Query string: Query: recorded result category for CCCC(=O)NC(Nc1ccccc1OC)C(Cl)(Cl)Cl (configuration not stated) in this test
Result string: False

Query string: How was CN[C@H]1C[C@H]2c3[nH]c4c(-c5ccccc5)cccc4c3CCN2C(=O)[C@H]1[C@H](C)O classified in this test?
Result string: False

Query string: Recorded test outcome, item CN(C)[C@H]1CCN(c2cccc3c2S(=O)(=O)N2CC[C@H](C2)O3)C1
Result string: False

Query string: Which outcome was assigned to C[C@H]1[C@H](NC(=O)c2cccc(N(C)C)c2)CC[C@@]23CCCN2C(=O)CCC[C@@H]13 in this test?
Result string: False

Query string: Assay result, entry OCCn1c(-c2ccccc2)csc1=Nc1ccccc1 — outcome?
Result string: True

Query string: Query: recorded result category for N#Cc1ccc(OC[C@@H](O)CN2CCC(C(O)(c3ccccc3)c3ccccc3)CC2)c(F)c1 in this test
Result string: False

Query string: For this compound, state the assay outcome: CN(c1ccccc1)S(=O)(=O)c1ccc(C(=O)NCc2cccnc2)cc1
Result string: False

* * *

- experimental target: Protein arginine N-methyltransferase 1 (Homo sapiens) (UniProt Q99873)
- measurement description: human PRMT1 activity-probe blockers – biochemical, fluorescence polarization, primary screen (AID 652257)
- assay context: recombinant PRMT1, activity-based probe fluorescence polarization; at 2.79 µM; hits give high values
Hit rate of the full screen: of about 370,000 compounds, about 4,800 (1.3%) were called active. This is one part of a sample in which actives are shown more often than they occur.
# reported inhibition; entries follow

Example results:
O=C(NC1CCCCN(Cc2ccc(Cl)cc2)C1=O)c1ccc(Br)cc1 (stereo not given)    -6.45% (inactive)
O=C(CSc1nc2ccccc2n1Cc1ccccc1)NNC(=S)Nc1ccccc1    1.31% (inactive)
c1ccc(CSc2ncnc3c2sc2nc(N4CCOCC4)c4c(c23)CCCC4)cc1    -1.26% (inactive)

Query string: Query (compound): CCOC(=O)[C@]12CCCC3=C1N(CCC3)C(=O)[C@@H](CC(=O)N1CCSCC1)C2 ; field requested: inhibition
Result string: -9.78% (inactive)

Query string: Consider the compound shown here: CN(C)c1ccc(NC(=O)NC2CCCCN(Cc3ccc(Cl)cc3)C2=O)cc1 (stereo not given) What is its recorded inhibition?
Result string: 4.83% (inactive)
